- Target entity: NLRP3 inflammasome (Homo sapiens)
- Construct: endogenous in cells
- Sequence (Q96P20 whole entry): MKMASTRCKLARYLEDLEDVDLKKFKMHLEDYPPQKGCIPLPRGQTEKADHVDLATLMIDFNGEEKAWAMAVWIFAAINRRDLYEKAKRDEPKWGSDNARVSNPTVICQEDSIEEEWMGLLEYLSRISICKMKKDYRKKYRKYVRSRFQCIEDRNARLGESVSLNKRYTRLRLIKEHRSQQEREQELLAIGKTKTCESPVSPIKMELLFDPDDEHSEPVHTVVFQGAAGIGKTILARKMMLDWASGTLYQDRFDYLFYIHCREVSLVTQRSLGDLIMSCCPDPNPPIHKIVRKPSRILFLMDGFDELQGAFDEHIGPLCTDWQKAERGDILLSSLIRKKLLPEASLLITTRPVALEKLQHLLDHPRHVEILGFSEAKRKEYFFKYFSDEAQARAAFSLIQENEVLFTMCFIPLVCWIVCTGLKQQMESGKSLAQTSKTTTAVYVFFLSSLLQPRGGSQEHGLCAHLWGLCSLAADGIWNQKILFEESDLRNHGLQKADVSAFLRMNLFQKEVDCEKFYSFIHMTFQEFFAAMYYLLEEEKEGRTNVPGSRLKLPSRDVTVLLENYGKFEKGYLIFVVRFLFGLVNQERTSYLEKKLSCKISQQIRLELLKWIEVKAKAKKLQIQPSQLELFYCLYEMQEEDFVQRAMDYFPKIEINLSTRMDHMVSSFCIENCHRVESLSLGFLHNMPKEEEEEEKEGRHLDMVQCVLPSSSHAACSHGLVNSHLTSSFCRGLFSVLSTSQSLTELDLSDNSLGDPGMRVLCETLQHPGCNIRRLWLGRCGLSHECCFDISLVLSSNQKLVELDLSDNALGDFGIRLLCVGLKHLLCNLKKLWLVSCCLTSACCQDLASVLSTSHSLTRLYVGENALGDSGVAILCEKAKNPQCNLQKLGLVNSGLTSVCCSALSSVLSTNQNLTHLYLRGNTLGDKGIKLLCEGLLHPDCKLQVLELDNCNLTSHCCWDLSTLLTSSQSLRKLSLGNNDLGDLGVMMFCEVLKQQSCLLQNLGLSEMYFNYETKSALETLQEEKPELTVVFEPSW
- Test description: IL-1β secretion assay (NLRP3 IC50) in LPS-primed, nigericin-activated THP-1 cells, HTRF
- Assay setup: monocytic THP-1 cells; LPS 10 ng/mL 3 h priming, then compound + nigericin 10 μM 2 h; relative IC50, 10 concentrations, geometric mean
Consider the following compounds; for each one, report its IC50.
Express the reported value numerically, then name its unit.

[[record]]
compound = "Cc1cc(Cl)cc(O)c1-c1ccc(N2CCO[C@@H]3CCN(CCF)C[C@@H]32)nn1"
quantity_name = "IC50"
result = "0.021 µM"

[[record]]
compound = "Cc1cc(C)c(-c2ccc(N3CCC[C@@H]4CCNC(=O)[C@@H]43)nn2)c(O)c1 (racemic)"
quantity_name = "IC50"
result = "0.177 µM"

[[record]]
compound = "CC(=O)N1CC[C@H]2CCN(c3cc(C)c(-c4ccc(C)cc4O)nn3)[C@H]2C1"
quantity_name = "IC50"
result = "0.432 µM"


Switching to the query record.
INPUT: Please report IC50 for the following compound: CCc1cc(C(F)(F)F)cc(O)c1-c1ccc(N2CCO[C@@H]3CCN(C)C[C@@H]32)nn1
OUTPUT: 0.002 µM
